# target.entity: IL16_1, Q14005
# Sequence (Q14005 210-306): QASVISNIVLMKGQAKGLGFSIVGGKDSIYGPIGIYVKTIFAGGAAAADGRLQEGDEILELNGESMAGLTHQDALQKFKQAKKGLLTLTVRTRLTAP
# measurement.protocol: holdup assay
# Set-up: key: below the threshold = too weak to quantify, mostly under pKd 3.1 to 4
# settings: plain residues with an end cap or a label only (N-terminal biotin on a linker: ado-ado)
result.type: pKd

Worked cases, answers included:
1. RFQQRMQTHV [KIRREL1, Q96J84]; below the threshold
2. TISFTQTSQF [SLC1A1, P43005]; below the threshold
3. QSGLYESEEL [MYOT, Q9UBF9]; below the threshold
4. QSYPSKHDYV [CLDN18, P56856]; below the threshold
5. KRPEMTSSSV [MUC3B, MUC3A, Q02505;Q9H195]; 3.94
6. AAVENKVTDL [PLXNB1, O43157]; below the threshold

*Q* Name the recorded pKd of the item MQHQRTHTRV [ZSCAN30, Q86W11] in your answer.
*A* below the threshold

*Q* Name the recorded pKd of the item PYPTADHMLA [JUP, P14923] in your answer.
*A* below the threshold

*Q* Name the recorded pKd of the item RSSGGDDFWF [KCNV1, Q6PIU1] in your answer.
*A* below the threshold

*Q* Name the recorded pKd of the item SFISKKEWYV [NECTIN1, Q15223] in your answer.
*A* below the threshold

*Q* Name the recorded pKd of the item APIAGFSSFV [SDK2, Q58EX2] in your answer.
*A* 4.06

*Q* Name the recorded pKd of the item NNNVVKVDSV [MTNR1A, P48039] in your answer.
*A* below the threshold

*Q* Name the recorded pKd of the item PSHPRLQTHV [KIRREL2, Q6UWL6] in your answer.
*A* below the threshold
